System: NCI-H460 lung
Test: NCI-60 one-dose screen, 48 h
Conditions: 10 µM unless noted
This is part of a sample that, as a whole, favours compounds with a hit. Of some 83,000 tested, about 20% had one in any assay. The source made the active and inactive calls. How the source made its calls: active means growth percent below 10; inactive means the rest.
Output constraint: value belongs to 1 (active), 0 (inactive)

compound: CC(C)[C@@H](C)/C=C/[C@@H](C)[C@H]1CCC2=C3C=CC4=CC(=O)CC[C@]4(C)[C@H]3CC[C@@]21C
classification: 0

compound: CCC1(/C=N/NC(N)=S)NC(=O)NC1=O (centres undefined)
classification: 0

compound: O=C(O)C1(Cc2cccc(Nc3nccs3)n2)CCC(Oc2cccc(Cl)c2F)CC1 (centres undefined)
classification: 0

compound: O=C(c1c(F)ccc(NS(=O)(=O)N2CC[C@@H](F)C2)c1F)c1c[nH]c2ncc(-c3cnc(C4CC4)nc3)cc12
classification: 0

compound: C=C1C(=O)O[C@H]2[C@H]1CC/C(C=Nc1c(N)cc(C(F)(F)F)cc1C(F)(F)F)=C\CC[C@@]1(C)O[C@@H]21
classification: 1

compound: Clc1nc(Cl)c2ncn(CC#CCn3cnc4c(Cl)nc(Cl)nc43)c2n1
classification: 0

Query string: Could you please tell me the result logged for "N#CC[C@H](C1CCCC1)n1cc(-c2ncnc3[nH]ccc23)cn1" in this assay?
Result string: 0

Query string: Could you please tell me the result logged for O=C1OCC2=C1C(c1cccc(F)c1)c1cc3c(cc1N2CCO)OCCO3 (centres undefined) in this assay?
Result string: 1

Query string: Could you please tell me the result logged for "N[C@@H]1CCCN(c2c(/C=C3\SC(=O)NC3=O)cccc2-c2ccccc2)C1" in this assay?
Result string: 0

Measured values drawn from PubChem BioAssay (NCI) for this set.
